Molecular target: vanilloid receptors on vasodilator sensory nerves (Rattus norvegicus)
Sequence (O35433 whole entry): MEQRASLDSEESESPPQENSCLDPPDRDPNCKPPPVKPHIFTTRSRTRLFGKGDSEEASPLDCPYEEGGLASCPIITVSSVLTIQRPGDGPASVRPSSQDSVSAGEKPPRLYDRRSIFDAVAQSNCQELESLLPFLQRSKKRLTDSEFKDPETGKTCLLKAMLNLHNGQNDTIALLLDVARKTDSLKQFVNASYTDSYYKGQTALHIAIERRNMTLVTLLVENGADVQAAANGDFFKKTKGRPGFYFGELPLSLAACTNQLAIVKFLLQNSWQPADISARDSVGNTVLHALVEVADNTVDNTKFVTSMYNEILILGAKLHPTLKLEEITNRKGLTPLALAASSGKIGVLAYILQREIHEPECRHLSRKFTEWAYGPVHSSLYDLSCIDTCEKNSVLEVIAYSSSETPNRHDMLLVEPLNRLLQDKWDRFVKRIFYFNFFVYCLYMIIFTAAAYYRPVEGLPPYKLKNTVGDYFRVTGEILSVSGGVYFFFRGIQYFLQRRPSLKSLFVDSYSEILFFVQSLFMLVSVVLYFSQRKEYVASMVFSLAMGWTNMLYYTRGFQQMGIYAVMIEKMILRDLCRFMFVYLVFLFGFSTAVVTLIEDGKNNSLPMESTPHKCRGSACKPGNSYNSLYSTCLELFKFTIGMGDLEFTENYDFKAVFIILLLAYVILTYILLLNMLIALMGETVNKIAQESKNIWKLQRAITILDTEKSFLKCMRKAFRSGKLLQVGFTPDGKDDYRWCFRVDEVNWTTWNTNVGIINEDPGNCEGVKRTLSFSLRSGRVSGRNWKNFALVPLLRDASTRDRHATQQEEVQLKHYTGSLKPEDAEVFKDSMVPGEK
Test: Vasodilator effect in isolated rat mesenteric artery segments contracted with phenylephrine
parameterMeasured: EC50 (nM)
Numbers only here, please. The scale is nM.

Task: Specify EC50 for CCCCCC=CCC=CCC=CCC=CCCCC(=O)Nc1ccc(O)cc1 [AM404] , system vanilloid receptors on vasodilator sensory nerves (Rattus norvegicus).
Result: 15.8
